meta.source: patent US20010052137A1

Test system: GSK-3 beta
assay method text: Co-immunoprecipitation of GSK-3 beta with Myc-tagged Xaxin constructs in Xenopus oocytes
Type: binding
particulars: Myc-tagged construct co-expressed with GSK-3 beta in Xenopus oocytes; anti-Myc IP, anti-GSK-3 beta blot
measured property: binding with GSK-3 beta (co-immunoprecipitation)

GID-2: Myc-tagged fragment, Xaxin amino acid residues 320-429 (protein, left off: small tags and cut ends) DSEQQSMSSDADTMSLTDSSVDGIPPYRLRKHYRREMQESANANGRGPLPHIPRTYHMPKDIHVDPEKFAAELISRLEGVLRDREAEQKLEERLKRVRAEEEGDDGDVSS	bound
GID-4: Myc-tagged fragment, Xaxin amino acid residues 350-429 (protein, left off: small tags and cut ends) KHYRREMQESANANGRGPLPHIPRTYHMPKDIHVDPEKFAAELISRLEGVLRDREAEQKLEERLKRVRAEEEGDDGDVSS	bound
GID-1: Myc-tagged fragment, amino acid residues 277-545 of Xenopus axin (Xaxin) (protein, left off: small tags and cut ends) SHCAGSNRRLSDGREFRPGTWREPVNPYYVNTGYAGAPVTSANDSEQQSMSSDADTMSLTDSSVDGIPPYRLRKHYRREMQESANANGRGPLPHIPRTYHMPKDIHVDPEKFAAELISRLEGVLRDREAEQKLEERLKRVRAEEEGDDGDVSSGPSVISHKLPSGPPMHHFNSRYSETGCVGMQIRDAHEENPESILDEHVQRVMKTPGCQSPGTGRHSPKSRSPDGHLSKTLPGSLGTMQTGHGKHSSKSTAKVDSGNLHHHKHVYHH	bound
